Tested on: L. infantum axenic amastigotes
procedureSummary: axenic amastigote inhibition assay (MTT)
Assay type: cell-based
studyConditions: Leishmania infantum; 24 h, 37 °C, pH 5.5, MTT
pEC50: −log10 of the molar value.
metric: pEC50

[[record]]
molecule = "CC(C)(C)c1ccc(N/C(=N\\C(=O)c2ccccc2)NCc2ccccc2)cc1 [LQOFG-6]"
measuredvalue = 4.68

[[record]]
molecule = "C[C@@H]1[C@H](O)[C@@H](C)/C=C/C=C/C=C/C=C/C=C/C=C/C=C/[C@H](O[C@@H]2O[C@H](C)[C@@H](O)[C@H](N)[C@@H]2O)C[C@@H]2O[C@](O)(C[C@@H](O)C[C@@H](O)[C@H](O)CC[C@@H](O)C[C@@H](O)CC(=O)O[C@H]1C)C[C@H](O)[C@H]2C(=O)O [Amphotericin B, reference compound]"
measuredvalue = 6.52

[[record]]
molecule = "O=C(/N=C(/NCc1ccccc1)Nc1ccc(I)cc1)c1ccccc1 [LQOFG-7]"
measuredvalue = 4.73

[[record]]
molecule = "O=C(/N=C(/NCc1ccccc1)Nc1ccc(Br)cc1)c1ccccc1 [LQOFG-2]"
measuredvalue = 4.58


###

System: L. infantum axenic amastigotes
procedureSummary: apoptosis/necrosis profiling, annexin V/PI staining, axenic amastigotes
Format: cell-based, Leishmania infantum
studyConditions: 1 × EC50, 24 h
Marks after values point to notes of the source that are not given here.
metric: % cells, Late Apoptosis (AV+, PI+)

[[record]]
molecule = "C[C@@H]1[C@H](O)[C@@H](C)/C=C/C=C/C=C/C=C/C=C/C=C/C=C/[C@H](O[C@@H]2O[C@H](C)[C@@H](O)[C@H](N)[C@@H]2O)C[C@@H]2O[C@](O)(C[C@@H](O)C[C@@H](O)[C@H](O)CC[C@@H](O)C[C@@H](O)CC(=O)O[C@H]1C)C[C@H](O)[C@H]2C(=O)O [Amphotericin B, reference compound]"
metric = "% cells, Late Apoptosis (AV+, PI+)"
measuredvalue = "57.50 ± 1.72 ^d %"

[[record]]
molecule = "CC(C)(C)c1ccc(N/C(=N\\C(=O)c2ccccc2)NCc2ccccc2)cc1"
metric = "% cells, Late Apoptosis (AV+, PI+)"
measuredvalue = "20.00 ± 1.74%"

[[record]]
molecule = "O=C(/N=C(/NCc1ccccc1)Nc1ccc(Br)cc1)c1ccccc1"
metric = "% cells, Late Apoptosis (AV+, PI+)"
measuredvalue = "33.23 ± 0.73 ^c %"

[[record]]
molecule = "O=C(/N=C(/NCc1ccccc1)Nc1ccc(I)cc1)c1ccccc1"
metric = "% cells, Late Apoptosis (AV+, PI+)"
measuredvalue = "44.20 ± 1.01 ^d %"


###

Tested on: peripheral blood mononuclear cells (PBMCs)
procedureSummary: in vitro cytotoxicity in PBMC (MTT)
Assay type: cell-based, human
studyConditions: human PBMC, 24 h, MTT
metric: CC50 (µM)

[[record]]
compound = "C[C@@H]1[C@H](O)[C@@H](C)/C=C/C=C/C=C/C=C/C=C/C=C/C=C/[C@H](O[C@@H]2O[C@H](C)[C@@H](O)[C@H](N)[C@@H]2O)C[C@@H]2O[C@](O)(C[C@@H](O)C[C@@H](O)[C@H](O)CC[C@@H](O)C[C@@H](O)CC(=O)O[C@H]1C)C[C@H](O)[C@H]2C(=O)O [Amphotericin B, reference compound]"
testedsystem = "peripheral blood mononuclear cells (PBMCs)"
metric = "CC50"
measuredvalue = 53.8

